# target or system: T1, Cynomolgus PD-1 extracellular domain, hFc tag (cynomolgus, UniProt B0LAJ3 25-170)
# T1 construct: Bought; also called cynoPro1.ECD.hFc; cyno PD-1 ECD protein
# T1 sequence (B0LAJ3 entry or part of it limits assumed): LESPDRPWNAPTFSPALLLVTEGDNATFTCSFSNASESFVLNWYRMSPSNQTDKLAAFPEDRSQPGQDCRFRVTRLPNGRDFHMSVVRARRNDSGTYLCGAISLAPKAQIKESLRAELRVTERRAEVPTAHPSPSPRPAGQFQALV
# experiment summary: SPR Biacore 8K; PD-1-hFc captured on anti-human Fc chip, VHH injected; 1:1 fit
Friendly reminder: Kd below 20 nM is 1, at or above is -1.

A selection of reference data follows.
{"binder": "AP17R1-2H2-Z1-R1-27A2 (VHH, not shown: his- and c-Myc-tag from vector pETbac) VHH: QVQLVESGGGVVQPGGSLRLSCAASDSIDSLVNMGWYRQAPGKQRELVALIANYITHYADFVKGRFTISRDNSKNTLYLQMNSLRAEDTAVYYCYARSIIVDYWGQGTLVTVSS", "qualitative label": -1}
{"binder": "AP17R1-2H2-Z1-R1-6E1 (VHH, not shown: his- and c-Myc-tag from vector pETbac) VHH: QVQLVESGGGVVQPGGSLRLSCAASDSIDSMVNMGWYRQAPGKQRELVALIANYITHYADFVKGRFTISRDNSKNTLYLQMNSLRAEDTAVYYCYARNIIVDYWGQGTLVTVSS", "qualitative label": -1}
{"binder": "AP17R1-2H2-Z1-R1-30D3 (VHH, not shown: his- and c-Myc-tag from vector pETbac) VHH: QVQLVESGGGVVQPGGSLRLSCAASDSIDSLVNMGWYRQAPGKQRELVALIANYITHYADFVKGRFTISRDNSKNTLYLQMNSLRAEDTAVYYCYARNIIEDYWGQGTLVTVSS", "qualitative label": 1}
{"binder": "AP17R1-2H2-Z1 (VHH, also called the humanized AP17R1-2H2; not shown: his- and c-Myc-tag from vector pETbac) VHH: QVQLVESGGGVVQPGGSLRLSCAASDSIDSLVNMGWYRQAPGKQRELVALIANYITHYADFVKGRFTISRDNSKNTLYLQMNSLRAEDTAVYYCYARNIIVDYWGQGTLVTVSS", "qualitative label": -1}
{"binder": "AP17R1-2H2-Z1-R1-4B2 (VHH, not shown: his- and c-Myc-tag from vector pETbac) VHH: QVQLVESGGGVVQPGGSLRLSCAASDSISSLVNMGWYRQAPGKQRELVALIANYITHYADFVKGRFTISRDNSKNTLYLQMNSLRAEDTAVYYCYARNIIVDYWGQGTLVTVSS", "qualitative label": -1}

Incoming: Hi there! Is Kd for AP17R1-2H2-Z1-R1-14A1 (VHH, not shown: his- and c-Myc-tag from vector pETbac) VHH: QVQLVESGGGVVQPGGSLRLSCAASDSIDSLVNMGWYRQAPGKQRELVALIATYITHYADFVKGRFTISRDNSKNTLYLQMNSLRAEDTAVYYCYARNIIVDYWGQGTLVTVSS below 20 nM, do you know?
Outgoing: 1

Incoming: Hi there! Is Kd for AP17R1-2H2-Z1-R1-14B3 (VHH, not shown: his- and c-Myc-tag from vector pETbac) VHH: QVQLVESGGGVVQPGGSLRLSCAASDSIDSLVNMGWYRQAPGKQRELVALIARYITHYADFVKGRFTISRDNSKNTLYLQMNSLRAEDTAVYYCYARNIIVDYWGQGTLVTVSS below 20 nM, do you know?
Outgoing: 1

// data source = patent US20240301067A1
